The measured values listed here are drawn from PubChem BioAssay.

This listing pairs molecules with measured composite z-score.
ASSAY SUMMARY: small-molecule binders of probe aNOTCH2, primary screen, biochemical, small-molecule microarray, 635/667 nm fluorescence (AID 1121);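 also: score merges feature fluorescence read at 667 nm with its signal to noise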
CONDITION NOTES: higher = more signal
Reply: number alone, nothing else.

# MOLECULE, composite z-score
records = [
    ("C=C(/C(=C/C[C@@H](OC(=O)c1ccncc1)c1ccccc1OCCO)c1cc(C(=O)OC)ccc1OC)C(C)C", -0.0895),
]

Query: I'd like to know its composite z-score. The molecule in question is COc1ccc([Si](C)(C)[C@@H]2[C@@H](CCn3cc([C@H](O)c4ccccc4)nn3)O[C@]3(C(=O)N(Cc4ccc(N5CCOC5=O)cc4)c4ccccc43)[C@H]2C)cc1
Reply: -0.0502

Query: And COc1ccc([Si](C)(C)[C@H]2[C@H](CC(=O)N3Cc4ccccc4C[C@H]3CO)O[C@@]3(C(=O)N(Cc4cccc(N5CCCCC5=O)c4)c4ccccc43)[C@@H]2C)cc1 ?
Reply: -0.14

Query: And O=C1OCC=C[C@H]2OC34C=CCN(c5ccc(Cl)cc5)C(=O)[C@H]3N(CCCCCO)C(=O)[C@@H]4[C@@H]12 (stereo not given in full) ?
Reply: -0.168

Query: And [N-]=[N+]=NCc1ccccc1[C@H]1OC(c2ccc(OCCCO)cc2)=N[C@@]1(CCS(=O)(=O)c1ccccc1)C(N)=O ?
Reply: 0.123

Query: And CCCc1cccc(=O)o1 ?
Reply: -0.127
